Test system: COLO 205 colon
Test: NCI-60 one-dose screen, 48 h (100 = growth as untreated, 0 = no growth, -100 = all killed)
Settings: 10 µM unless noted
About 83,000 compounds went through this panel and 20% of them were active in at least one assay; those are over-represented in the sample as a whole.
Field: label. Allowed values: met (growth < 80%) or not met (growth >= 80%).

{"compound": "CC(=O)c1c(N)c(C#N)cn1-c1ccc(Cl)cc1Cl", "group": "not met"}
{"compound": "COC(OC)C1=C(C)OC(N)=C(C#N)C12C(=O)Nc1ccccc12 (centres undefined)", "group": "not met"}
{"compound": "COc1ccc(C(=O)Nc2n[nH]c(Nc3ccccc3)c2C#N)cc1", "group": "not met"}
{"compound": "CCN(CC)c1ccnc(CNCCSC(c2ccccc2)(c2ccccc2)c2ccc(C)cc2)c1", "group": "met"}
{"compound": "CN(C)c1ccnc(NCCCSC(c2ccccc2)(c2ccccc2)c2ccccc2)c1", "group": "met"}
{"compound": "COc1ccc(C(SCCNCc2cc(N(C)C)ccn2)(c2ccccc2)c2ccccc2)cc1", "group": "met"}
{"compound": "O=C(Cn1nc(-c2ccccc2)ccc1=O)N/N=C/c1ccc(N2CCOCC2)cc1", "group": "not met"}
{"compound": "Cc1ccc(C(=O)CSc2nc3ccc(C)cc3c(=O)n2-c2ccc(F)cc2)cc1", "group": "not met"}
{"compound": "C=C1CC[C@@H]2[C@]3(C)COC(c4cn[nH]c4-c4ccc(OC)cc4)O[C@@H]3CC[C@@]2(C)[C@@H]1C/C=C1/C(=O)OCC1O (some centres undefined)", "group": "met"}
{"compound": "Nc1nc(-c2ccccc2)c(N=Nc2ccc(Cl)cc2[N+](=O)[O-])s1", "group": "not met"}
{"compound": "COC(=O)C[C@](O)(CCCC(C)(C)O)C(=O)O[C@H]1C(OC)=C[C@@]23CCCN2CCc2cc4c(cc2[C@@H]13)OCO4", "group": "met"}
{"compound": "CC(C)CSc1nc(NCCc2c[nH]c3ccccc23)c(C#N)c(-c2ccc(Cl)cc2)n1", "group": "met"}
{"compound": "Cc1ccc(NC(=O)CN2CCN(c3ncnc4c3cnn4-c3ccccc3)CC2)cc1", "group": "not met"}
{"compound": "COc1c(F)ccc(C(=O)Nc2ccc3nc(NC(=O)C4CCCN(S(=O)(=O)C5CC5)C4)sc3c2)c1F (centres undefined)", "group": "met"}
{"compound": "c1ccc(-c2csc(Nc3cccc(Nc4nc(-c5ccccc5)cs4)c3)n2)cc1", "group": "not met"}
{"compound": "O=c1[nH]c2ccccc2cc1CSc1cccc(Nc2nccc(-c3ccc4ccccc4c3)n2)c1", "group": "not met"}
{"compound": "CC12CC[C@@H]3[C@]4(C)COC(c5cn[nH]c5-c5cccc(Cl)c5)O[C@@H]4CC[C@@]3(C)[C@@H]1CC(C1=CCOC1=O)O2 (some centres undefined)", "group": "met"}
{"compound": "C/C(=N\\N=C1/C(=O)Nc2ccc(Cl)cc21)c1ccc2c(c1)Nc1ccccc1S2", "group": "met"}
{"compound": "CC(=O)Oc1ccccc1C(=O)[Se]CC(=O)Nc1cccc(C(F)(F)F)c1", "group": "met"}

Reference source for all entries: PubChem BioAssay (NCI)
